B1: Twister Ribozyme (parent)
chain: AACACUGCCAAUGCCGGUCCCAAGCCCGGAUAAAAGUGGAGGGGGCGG

Variants of: B1
Assay: self-cleavage, relative activity (ratio to wild type); higher = more cleavage; co-transcriptional
Entries and their self-cleavage
Simply state the number, no unit and no words.

Reference set (2 entries):
INSERT INTO measurements (residuechange, numericresult) VALUES
  ('A11U C25G', 0.501),
  ('U12G G16A', 0.864);

Turning to the following variant.
Exercise: For U12C A33C , what is its reported self-cleavage?
Key: 0.876
